Experiment: Single oral dose pharmacokinetics study in rats (10 mg/kg PO; plasma levels of prodrug and of metabolite DMT or 5-MeO-DMT by LC-MS/MS)
Conditions: male, Sprague-Dawley, rat, plasma, po, 10 mg/kg, AUC0-t (ng.hr/mL), PO 10 mg/kg Plasma [Tlast = 4 h], analyte = dosed prodrug
assay metric: AUC(0-t)

[
  {
    "compound": "CC(C)OP(=O)(OC(C)C)n1cc(CCN(C)C)c2ccccc21 [Diisopropylphosphonate DMT Prodrug]",
    "assay metric": "AUC(0-t)",
    "value measured": "489 ng·h/mL"
  }
]

---

Documented tlast across a set of compounds
Experiment: Single intravenous dose pharmacokinetics study in rats (1 mg/kg IV; plasma levels of prodrug and of DMT or 5-MeO-DMT by LC-MS/MS)
Conditions: IV 1 mg/kg, plasma, analyte = dosed compound

[
  {
    "compound": "CCOC(=O)n1cc(CCN(C)C)c2cc(OC)ccc21 [Compound 19]",
    "tlast / h": 5.50
  },
  {
    "compound": "COc1ccc2[nH]cc(CCN(C)C)c2c1 [Compound 5-MeO-DMT, 5-methoxy-N,N-dimethyltryptamine, reference compound]",
    "tlast / h": 5.50
  },
  {
    "compound": "CCOC(=O)n1cc(CCN(C)C)c2ccccc21 [Compound 20]",
    "tlast / h": 4.00
  },
  {
    "compound": "CN(C)CCc1c[nH]c2ccccc12 [DMT, N,N-dimethyltryptamine]",
    "tlast / h": 1.50
  },
  {
    "compound": "COc1ccc2c(c1)c(CCN(C)C)cn2P(=O)(OC(C)C)OC(C)C [Diisopropylphosphonate 5-MeO-DMT Prodrug]",
    "tlast / h": 4.00
  },
  {
    "compound": "CC(C)OP(=O)(OC(C)C)n1cc(CCN(C)C)c2ccccc21 [Diisopropylphosphonate DMT Prodrug]",
    "tlast / h": 4.00
  }
]
